The measurements presented in this section are drawn from ChEMBL document CHEMBL1201862.

Tested on: CAKI-1
Assay: NCI tumour cell line growth inhibition, 48 h
The source made the active and inactive calls. Rule as the data show it: active = GI50 up to about 1.1 µM and inactive = higher.
observable: GI50

INSERT INTO measurements (molecule, tgt, observable, test_result) VALUES
  ('Cc1c([N+](=O)[O-])ccc2c(NCCCN(C)C)ccnc12', 'CAKI-1', 'GI50', '35.6 µM (inactive)'),
  ('O=C1c2ccccc2C(=O)N1C1(C(=O)NC2(C(=O)O)CCCC2)CCCC1', 'CAKI-1', 'GI50', '> 100 µM (inactive)'),
  ('CN(C)CCNC(=O)c1cccc2[nH]c(-c3ccncc3)nc12', 'CAKI-1', 'GI50', '2.55 µM (inactive)'),
  ('CC(C)OP(=O)(OC(C)C)/C(=N/Nc1ccc([N+](=O)[O-])cc1)NNC(=O)c1ccccc1', 'CAKI-1', 'GI50', '76.6 µM (inactive)'),
  ('O=C(c1ccc2c3c(ccc(C(=O)C(F)(F)F)c13)CC2)C(F)(F)F', 'CAKI-1', 'GI50', '> 100 µM (inactive)');

Tested on CAKI-1, the item Cc1cccc2sc(-c3ccc(O)cc3)nc12 showed GI50 equal to 16.5 µM (inactive)

Tested on CAKI-1, the item Cc1ccccc1NC(=O)C(=O)C(c1cnc2ccc([N+](=O)[O-])cc2n1)[N+](=O)[O-] (stereo not given) showed GI50 equal to > 100 µM (inactive)

Tested on CAKI-1, the item O=C(NNC(=S)Nc1ccccc1)c1ccccc1Nc1ccccc1C(=O)NNC(=S)Nc1ccccc1 showed GI50 equal to 48.2 µM (inactive)

Tested on CAKI-1, the item CSC(SC)=C(C#N)C(=O)Nc1cccc(Cl)c1 showed GI50 equal to 45.9 µM (inactive)

---

Tested on: M19-MEL
Assay: NCI tumour cell line growth inhibition, 48 h
Activity calls are given as the source filed them. Rule as the data show it: active = GI50 up to about 1.1 µM and inactive = higher.
Measured GI50 values are reported for all entries that follow.

Example entries begin here.
INSERT INTO results (compound, test_result) VALUES
  ('O=C(O)c1cc(-c2ccccc2O)nc2ccccc12', '> 100 µM (inactive)'),
  ('N#C/C1=C(\N)CCSSSC1', '32.1 µM (inactive)'),
  ('Cc1ccc(S(=O)(=O)c2ccccn2)cc1', '> 100 µM (inactive)'),
  ('COC(=O)/C=C\C1C(C(=O)OC)C2(C(=O)OC)CCC1(C(=O)OC)N2 (centres undefined)', '14.7 µM (inactive)'),
  ('Cc1nnc2n1N=C(c1ccc(-c3ccc([N+](=O)[O-])cc3)o1)CS2', '> 100 µM (inactive)');

response.value for CC1(C)OCC(C(O)C2OC(C)(C)OC2/C=N\O)O1 (centres undefined) (field: GI50) = > 100 µM (inactive)

response.value for CC12CC[C@@H](C(C)(C)O)C1[C@@H](O)CC1(C)C2CCC2[C@@]3(C)CC[C@H](O)C(C)(C)C3C(O)C[C@]21C (some centres undefined) (field: GI50) = 24.3 µM (inactive)

response.value for CCOC(=O)C(C)OC(=O)c1ccc(C)cc1 (centres undefined) (field: GI50) = > 100 µM (inactive)

response.value for C[C@]12CCC(=O)C=C1CC[C@@H]1[C@@H]2[C@@H](O)C[C@@]2(C)[C@H]1CC[C@]2(O)C(=O)COC(=O)COCC(=O)O (field: GI50) = > 100 µM (inactive)

response.value for c1ccc2c(c1)cc(C1NCCc3nc[nH]c31)c1ccccc12 (centres undefined) (field: GI50) = 29.6 µM (inactive)

response.value for O=C(C/C(CCC(=O)N(Cc1ccccc1)Cc1ccccc1)=N/Nc1ccc([N+](=O)[O-])cc1[N+](=O)[O-])c1ccccc1 (field: GI50) = 68.4 µM (inactive)

response.value for NC(=O)c1cccc(C2OC(COP(=O)(O)O)C(O)C2O)c1 (centres undefined) (field: GI50) = > 50 µM (inactive)
